This listing pairs compounds with measured Relative peak area, Mean.
# test: GC fingerprint: study on the sample stability
# Type: physicochemical
# cond: Semen Ziziphi Spinosae oil sample 2 test solution, mean over 0-12 h
property-label: Relative peak area, Mean

* CC/C=C\C/C=C\C/C=C\CCCCCCCC(=O)OC [Peak 5] | 0.009
* CCCCCCCCCCCCCCCCCCCC(=O)OC [Peak 8] | 0.023
* CCCCCCCCCCCCCCCCCCCCCC(=O)OC [Peak 11] | 0.020
* CCCCCCCC/C=C\CCCCCCCC(=O)OC [Peak s] | 1.000

* * *

# test: GC fingerprint: study on the sample stability
# Assay type: physicochemical
# cond: Semen Ziziphi Spinosae oil sample 2 test solution, tested at 0 h, GC
property-label: Relative retention time, standing time 0

• CCCCCCCCCCCCCCCCCCCC(=O)OC [Peak 8] = 1.307
• CC/C=C\C/C=C\C/C=C\CCCCCCCC(=O)OC [Peak 5] = 1.184
• CCCCCCCCCCCCCCCCCCCCCC(=O)OC [Peak 11] = 1.655
• CCCCCCCC/C=C\CCCCCCCC(=O)OC [Peak s] = 1.000
